Ref: BigSolDB 2.1

conditionSummary: in n-propanol, 303.15 K
readoutKind: solubility (mole fraction)

Field solubility (mole fraction) (entry CC(=O)OC(c1ccccc1)C(Cl)(Cl)Cl (stereo unspecified) ) reads 0.0216

###

conditionSummary: in acetone, 318.15 K
readoutKind: solubility (mole fraction)
Form field (numeric): enter value without unit.

Field solubility (mole fraction) (entry CC(=O)OC(c1ccccc1)C(Cl)(Cl)Cl (stereo unspecified) ) reads 0.273

###

conditionSummary: in acetone, 293.15 K
readoutKind: solubility (mole fraction)
Form field (numeric): enter value without unit.

Field solubility (mole fraction) (entry CC(=O)OC(c1ccccc1)C(Cl)(Cl)Cl (stereo unspecified) ) reads 0.111

###

conditionSummary: in ethanol, 318.15 K
readoutKind: solubility (mole fraction)
Form field (numeric): enter value without unit.

Field solubility (mole fraction) (entry CC(=O)OC(c1ccccc1)C(Cl)(Cl)Cl (stereo unspecified) ) reads 0.0406

###

conditionSummary: in ethanol, 308.15 K
readoutKind: solubility (mole fraction)
Form field (numeric): enter value without unit.

Field solubility (mole fraction) (entry CC(=O)OC(c1ccccc1)C(Cl)(Cl)Cl (stereo unspecified) ) reads 0.0217

###

conditionSummary: in ethyl acetate, 323.15 K
readoutKind: solubility (mole fraction)
Form field (numeric): enter value without unit.

Field solubility (mole fraction) (entry CC(=O)OC(c1ccccc1)C(Cl)(Cl)Cl (stereo unspecified) ) reads 0.333

###

conditionSummary: in acetonitrile, 313.15 K
readoutKind: solubility (mole fraction)

Field solubility (mole fraction) (entry CC(=O)OC(c1ccccc1)C(Cl)(Cl)Cl (stereo unspecified) ) reads 0.13

###

conditionSummary: in acetic acid, 313.15 K
readoutKind: solubility (mole fraction)
Form field (numeric): enter value without unit.

Field solubility (mole fraction) (entry CC(=O)OC(c1ccccc1)C(Cl)(Cl)Cl (stereo unspecified) ) reads 0.0767

###

conditionSummary: in acetone, 323.15 K
readoutKind: solubility (mole fraction)
Form field (numeric): enter value without unit.

Field solubility (mole fraction) (entry CC(=O)OC(c1ccccc1)C(Cl)(Cl)Cl (stereo unspecified) ) reads 0.32

###

conditionSummary: in acetone, 288.15 K
readoutKind: solubility (mole fraction)
Form field (numeric): enter value without unit.

Field solubility (mole fraction) (entry CC(=O)OC(c1ccccc1)C(Cl)(Cl)Cl (stereo unspecified) ) reads 0.0931

###

conditionSummary: in methanol, 298.15 K
readoutKind: solubility (mole fraction)

Field solubility (mole fraction) (entry CC(=O)OC(c1ccccc1)C(Cl)(Cl)Cl (stereo unspecified) ) reads 0.00931

###

conditionSummary: in ethyl formate, 293.15 K
readoutKind: solubility (mole fraction)
Form field (numeric): enter value without unit.

Field solubility (mole fraction) (entry CC(=O)OC(c1ccccc1)C(Cl)(Cl)Cl (stereo unspecified) ) reads 0.105

###

conditionSummary: in acetonitrile, 328.15 K
readoutKind: solubility (mole fraction)
Form field (numeric): enter value without unit.

Field solubility (mole fraction) (entry CC(=O)OC(c1ccccc1)C(Cl)(Cl)Cl (stereo unspecified) ) reads 0.286

###

conditionSummary: in acetonitrile, 308.15 K
readoutKind: solubility (mole fraction)
Form field (numeric): enter value without unit.

Field solubility (mole fraction) (entry CC(=O)OC(c1ccccc1)C(Cl)(Cl)Cl (stereo unspecified) ) reads 0.0989

###

conditionSummary: in n-propanol, 318.15 K
readoutKind: solubility (mole fraction)
Form field (numeric): enter value without unit.

Field solubility (mole fraction) (entry CC(=O)OC(c1ccccc1)C(Cl)(Cl)Cl (stereo unspecified) ) reads 0.0496
